In this section, each of the compounds is paired with its reported melting point.
experimental-readout: melting point

>>> df
                                   compound             result
0  CC(O)CNC(=O)CCCCCNC(=O)c1ccc2ccccc2c1 (stereo not drawn)  111.6 to 113.6 °C
1  CC(O)CNC(=O)CCCCCNC(=O)c1ccc(Cl)cc1 (stereo not drawn)    93.9 to 95.7 °C
2       O=C(CCCCCNC(=O)c1ccc2c(c1)OCO2)NCCO    94.5 to 96.7 °C
3  CC(O)CNC(=O)CCCCCNC(=O)c1ccccc1Cl (stereo not drawn)  110.2 to 113.6 °C
4              O=C(CCCCCNC(=O)c1ccccc1)NCCO  111.2 to 114.5 °C
5          O=C(CCCCCNC(=O)c1ccc(Br)cc1)NCCO  115.7 to 118.7 °C
